# Test system: THRa:RXRa (NR concentration 90 nM, RXRa partner concentration 90 nM)
# experimental_details: PBM binding z-score (relative to random genomic background probes); higher = stronger binding; sequences stand for … in GC…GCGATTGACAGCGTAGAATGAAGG
// label = Satisfied if PBM binding z-score is not less than 3, otherwise Not satisfied

INSERT INTO assay_data (sequence_text, class_label) VALUES
  ('CGAACTAGGGCACCAGGACAGTGAAGAGGTTGGA', 'Not satisfied'),
  ('TCTCGGAGGACACGAAACGTCAGAGCTCGACATC', 'Not satisfied'),
  ('CGAACTTGGTCAAAGGACAGTGAAAGGCGACGTA', 'Not satisfied'),
  ('ATATGTAGATTAGGGTCATTCAGAAAGTAGGGAA', 'Satisfied'),
  ('ATAAGTAGGTTAGGGTCATTCAGAAAGTAGGGAA', 'Satisfied'),
  ('CTATGTAGGTTAAGGGGTTCATTCAGTTTGAAAG', 'Not satisfied'),
  ('CCTACTGGGCCAATAAGGTCATTGATGCCGATAA', 'Satisfied'),
  ('CGTCCGAGGTCAAAGGTCAGTGAAGAGATGACGG', 'Satisfied'),
  ('GCTTACGGGTCAAAGGTTATAGTATGAATAGAAT', 'Satisfied'),
  ('AATACAGGGACATCGTAGGCCAGAGTACGCACAG', 'Not satisfied'),
  ('CGTCTAAGGTCAGCAGGTCAGTGAAAGCGACGTG', 'Satisfied'),
  ('ATATGTAGGTTAGGGTCATCCAGAAAGTAGGGAA', 'Satisfied'),
  ('ACTCGGAGGACAAAGGTCACAGCTACGCCAGTGA', 'Satisfied'),
  ('CGTCAAAGTTCAAGGTAAAGTAACAGAAAGCAGC', 'Not satisfied'),
  ('CGAACTAGGTCAAAGGACAGCGAAAGGCGACGTA', 'Not satisfied'),
  ('CCGAGTAGGTTACGAGGGGGCATCCAGTGCGAAT', 'Satisfied'),
  ('CGAACTACGTCACCAGGACAGTGAAGAGGTTGGA', 'Not satisfied'),
  ('TGTCAGAGTTCAAAGGTAACGTAAGTATCCACAC', 'Satisfied'),
  ('ATATGTAGGTTACGGTCATTCAGAAAGTAGGGAA', 'Not satisfied'),
  ('GCTAGTAGGTCAGTAAAAGGTCACACACCGGTCG', 'Satisfied'),
  ('TCTAGCTGGTCAAAGGTCACACACTCGAAATGCG', 'Satisfied'),
  ('TGACTGAGGTTAAAGATCAGGGAACGTGGCGTCG', 'Not satisfied'),
  ('ATGTGTAGGTTAGGGTCATTCAGAAAGTAGGGAA', 'Satisfied'),
  ('AGAATGGGGTTAAGATCAGGGAAACAGAATACAT', 'Satisfied'),
  ('CAAACTAGGTCACCGGAAAGTCAAAGTCCGCATG', 'Satisfied'),
  ('AATACAGGGTCGCTAGGCCAGAGTAGGTACGAAT', 'Not satisfied'),
  ('CTATGTAGGATAAGGGGGTCATTCAGTTTGAAAG', 'Satisfied'),
  ('CCGAGTAGGCTACGAGGGGGCATTCAGTGCGAAT', 'Not satisfied'),
  ('TCGAGTAGGTTACGGGGGCATTAAGGGATGAAGA', 'Not satisfied'),
  ('GATACAGGGTCAGCTTGAGGCCAGAGTATGGAAA', 'Satisfied'),
  ('CGAACTAGGTCAGCAGGACAGTGAAGAGGTTGGA', 'Not satisfied'),
  ('CGAACTAGGTCACCAGGACCGTGAAGAGGTTGGA', 'Not satisfied'),
  ('CCGAGTAGGTTACGAGGGTGCATTCAGTGCGAAT', 'Not satisfied'),
  ('CCTCGGAGGACAACAGGAGGTCAAAGCTGCCAGA', 'Satisfied'),
  ('TCGAGTAGGTTACGGGGGGATTCAGGGATGAAGA', 'Satisfied'),
  ('CGAACTAGGTCAAAGGACAATGAAAGGCGACGTA', 'Not satisfied'),
  ('CGGCCAAGGTCAAAGGTCAGTGAAGAGATGACGG', 'Satisfied'),
  ('CATACAGGGACAGCTAGGCCAGAGTAGGGACGGC', 'Not satisfied'),
  ('CCGAGTAGGTTACGAGGGGACATTCAGTGCGAAT', 'Satisfied'),
  ('CTATGTAGGTTAAGGGGGCCATTCAGTTTGAAAG', 'Not satisfied'),
  ('TCTTATAGATCAATAGAGGTTAAGAAAGTGCGCT', 'Not satisfied'),
  ('AATACAGGGTCCTCGTAGGCCAGAGTACGCACAG', 'Not satisfied'),
  ('CGAACTAGGTCAAAGGACAGTTAAAGGCGACGTA', 'Not satisfied'),
  ('CTAGGTAGGTTAAGGGGGTCATTCAGTTTGAAAG', 'Satisfied'),
  ('CCTACTGGGCCATTCAGAGGACATTGATCATATG', 'Not satisfied'),
  ('TCTGCTAGGTCAACGATGGTCAGCGAATCTGCTA', 'Satisfied'),
  ('CTATGTAGGTTAAGGGGGTCATGCAGTTTGAAAG', 'Satisfied');

----------
# System: PPARg:RXRa (NR concentration 180 nM, RXRa partner concentration 90 nM)
# experimental_details: PBM binding z-score (relative to random genomic background probes); higher = stronger binding; sequences stand for … in GC…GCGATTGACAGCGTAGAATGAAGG
Each entry below carries its reported PBM binding z-score.
measured_quantity: PBM binding z-score

INSERT INTO assay_data (sequence_text, measurement) VALUES
  ('TTACCAAGGTGAAAGGTCGGTGATGCACGCCTTG', 7.36),
  ('CGAACTAGGTCACCAGGGCAGTGAAGAGGTTGGA', 8.69),
  ('CCGACTGGGGCAACGGTTACCATACTCAGTACGA', 3.08),
  ('TCTCGGATGACACGAAAGGTCAGAGCTCGACATC', 1.38),
  ('CATACAGGGTAAGCTAGGCCAGAGTAGGGACGGC', 0.575),
  ('CAAACTAGGTCAAAGGTCAAACTCGAGCCAACCA', 14.1),
  ('CCTACTGGGCCATTCAGAGGTCATCGATCATATG', 2.51),
  ('CGAACTAGGTCACCAGGACAATGAAGAGGTTGGA', 8.69),
  ('AGTCAAAGGTCAGGACGAGGTAACGTAAAGCACG', 8.88),
  ('CGAACTAGGTCACCGGGACAGTGAAGAGGTTGGA', 9.04),
  ('CTATGTAGGTTAAGGGGGTCATCCAGTTTGAAAG', 8.53),
  ('CAGCCTAGTTCAGGGCCAGTATAGGAGGAACGTT', -0.041),
  ('ATATGTAGTTTAGGGTCATTCAGAAAGTAGGGAA', 3.26),
  ('CCTACTGGGGCAAAGGTCATTGATTCCAATGCTC', 12),
  ('TTACCAAGGTGAACTGAGGTCGTTGATCCAACTC', 2.14),
  ('ATATGTAGGTTAGGGTCAATCAGAAAGTAGGGAA', 7.67),
  ('GCTGCTAGGTAAGGTTGGTCAGCTAACGGGTACG', -0.199),
  ('CTATGTAGGTAAAGGGGGTCATTCAGTTTGAAAG', 7.28),
  ('CTATGTAGGTTAAGGGCGTCATTCAGTTTGAAAG', 5.29),
  ('ATACGTAGGTTACATCCGGGTCATTCAGGCTATG', 1.57),
  ('CGAACTAGGTCACCAAGACAGTGAAGAGGTTGGA', 8.16),
  ('ATCGAAAGGTCGAGTTGAGTATAGAGAAAGGGAA', 2.44),
  ('CTATGTAGGTTAAGGGGGTCACTCAGTTTGAAAG', 8.64),
  ('CTCGAAAGGTCGAGCTCAGGTGAGTATACCAAAC', 2.39),
  ('AGTCAAAGTTCACGAGGTAACGTAAGATTCAGCT', 7.78),
  ('TCTAGTTGGTCAAAGGTCAAACACTCGAAATGCG', 11.2);

Reference source: the supplement of paper PMC6555819
